biological target: hOT7T175 (Homo sapiens, UniProt Q969F8, L364H); construct: expressed in transfected cells; type: cell-based; settings: hOT7T175/CHO, FLIPR, evaluation for 40 seconds after initiation of the reaction
Sequence (Q969F8 whole entry L364H): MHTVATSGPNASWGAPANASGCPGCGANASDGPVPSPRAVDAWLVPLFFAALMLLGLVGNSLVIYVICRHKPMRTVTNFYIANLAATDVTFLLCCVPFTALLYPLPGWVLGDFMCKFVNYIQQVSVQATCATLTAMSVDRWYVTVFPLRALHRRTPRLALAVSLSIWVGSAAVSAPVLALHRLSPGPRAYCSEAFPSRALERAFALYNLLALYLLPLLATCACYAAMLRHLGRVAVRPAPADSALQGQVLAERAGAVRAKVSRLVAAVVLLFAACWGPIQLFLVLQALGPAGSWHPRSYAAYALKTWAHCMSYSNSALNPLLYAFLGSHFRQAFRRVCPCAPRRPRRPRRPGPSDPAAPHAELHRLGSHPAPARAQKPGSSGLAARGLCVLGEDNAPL
Non-standard residues stand in square brackets, D forms with d. Residues, ends and D or L forms follow the SMILES beside them. *: point of attachment. Propanoyl(3-indol-3-yl) = O=C(CCc1c[nH]c2ccccc12)*; Arg(Me) = CNC(=N)NCCC[C@H](N)C(=O)O; 4Pal = N[C@@H](Cc1ccncc1)C(=O)O; azaGly = NNC(=O)O
Label YES for high-side Specific Act. (EC50/MS10 EC50) (at or above 5) and NO for low-side Specific Act. (EC50/MS10 EC50) (below it).

Use the examples below as a reference point.
{"columns": ["COMPOUND", "ASSAYED_SYSTEM", "LABEL_CLASS"],
 "data": [
  ["CC(C)C[C@H](NC(=O)CNC(=O)[C@H](Cc1ccccc1)NC(=O)[C@H](CO)NC(=O)[C@H](CC(N)=O)NC(=O)CCc1c[nH]c2ccccc12)C(=O)N[C@@H](CCCNC(=N)N)C(=O)N[C@@H](Cc1ccccc1)C(N)=O [Compound No. 114] ({Propanoyl(3-indol-3-yl)}-NSFGLRF-NH2)", "hOT7T175 (Homo sapiens, UniProt Q969F8, L364H)", "NO"],
  ["CNC(=N)NCCC[C@H](NC(=O)[C@H](CC(C)C)NC(=O)CNC(=O)[C@H](Cc1ccccc1)NC(=O)[C@H](CO)NC(=O)[C@H](C)NC(=O)[C@H](Cc1c[nH]c2ccccc12)NC(=O)[C@H](CC(N)=O)NC(=O)[C@H](N)Cc1ccc(O)cc1)C(=O)N[C@@H](Cc1ccccc1)C(N)=O [Compound No. 210] (H-[dY]NWASFGL[Arg(Me)]F-NH2)", "hOT7T175 (Homo sapiens, UniProt Q969F8, L364H)", "YES"],
  ["CNC(=N)NCCC[C@H](NC(=O)[C@H](CC(C)C)NC(=O)CNC[C@H](Cc1ccccc1)NC(=O)[C@H](CO)NC(=O)[C@H](CC(N)=O)NC(=O)[C@H](Cc1c[nH]c2ccccc12)NC(=O)[C@H](CC(N)=O)NC(=O)[C@H](N)Cc1ccc(O)cc1)C(=O)N[C@@H](Cc1ccccc1)C(N)=O [Compound No. 308]", "hOT7T175 (Homo sapiens, UniProt Q969F8, L364H)", "NO"],
  ["CC(C)C[C@H](NC(=O)CNC(=O)[C@H](Cc1ccccc1)NC(=O)[C@H](CO)NC(=O)[C@H](CC(N)=O)NC(=O)[C@@H](Cc1c[nH]c2ccccc12)NC(=O)[C@H](CC(N)=O)NC(=O)[C@@H](N)Cc1ccc(O)cc1)C(=O)N[C@@H](CCCNC(=N)N)C(=O)N[C@@H](Cc1ccccc1)C(N)=O [Compound No. 40]", "hOT7T175 (Homo sapiens, UniProt Q969F8, L364H)", "NO"],
  ["CNC(=N)NCCC[C@H](NC(=O)[C@H](CC(C)C)NC(=O)NNC(=O)[C@H](Cc1ccccc1)NC(=O)[C@H](CO)NC(=O)[C@H](CC(N)=O)NC(=O)[C@H](Cc1ccncc1)NC(=O)[C@@H](CC(N)=O)NC(=O)[C@H](N)Cc1ccc(O)cc1)C(=O)N[C@@H](Cc1ccccc1)C(N)=O [Compound No. 303] (H-[dY][dN][4Pal]NSF[azaGly]L[Arg(Me)]F-NH2)", "hOT7T175 (Homo sapiens, UniProt Q969F8, L364H)", "YES"]
]}

Exercise: hey, is Specific Act. (EC50/MS10 EC50) for this one >= 5? CNC(=N)NCCC[C@H](NC(=O)[C@H](CC(C)C)NC(=O)NNC(=O)[C@H](Cc1ccccc1)NC(=O)[C@H](CO)NC(=O)[C@H](CC(N)=O)NC(=O)[C@H](CO)NC(=O)[C@H](N)Cc1ccc(O)cc1)C(=O)N[C@@H](Cc1ccccc1)C(N)=O [Compound No. 239] (H-[dY]SNSF[azaGly]L[Arg(Me)]F-NH2)
Key: YES

Exercise: Decide: Specific Act. (EC50/MS10 EC50) of CNC(=N)NCCC[C@H](NC(=O)[C@H](CC(C)C)NC(=O)NNC(=O)[C@H](Cc1ccccc1)NC(=O)[C@H](CO)NC(=O)[C@H](CC(N)=O)NC(=O)[C@H](Cc1c[nH]c2ccccc12)NC(=O)[C@H](N)Cc1ccc(O)cc1)C(=O)N[C@@H](Cc1ccccc1)C(N)=O [Compound No. 222] (H-[dY]WNSF[azaGly]L[Arg(Me)]F-NH2) >= 5?
Key: NO

Exercise: Does the reported Specific Act. (EC50/MS10 EC50) for CC(C)C[C@H](NC(=O)CNC(=O)[C@H](Cc1ccccc1)NC(=O)[C@H](CO)NC(=O)[C@H](CC(N)=O)NC(=O)[C@H](Cc1c[nH]c2ccccc12)NC(=O)[C@@H](CC(N)=O)NC(=O)[C@@H](N)Cc1ccc(O)cc1)C(=O)N[C@@H](CCCNC(=N)N)C(=O)N[C@@H](Cc1ccccc1)C(N)=O [Compound No. 41] fall at or above the 5 mark?
Key: NO

// data source = patent US8778871B2
